Source: the Human Domainome abundance scans (Beltran et al. 2025)

B1: Proto-oncogene vav, residues 782 to 842; numbered along this chain, P15498 (parent)
chain: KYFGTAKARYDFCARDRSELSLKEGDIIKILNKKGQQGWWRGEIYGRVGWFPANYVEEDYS

# Variants of: B1
# assayProtocol: abundance fitness (aPCA) (normalised: wild type 0, dead -1); higher = more abundant; growth selection in yeast, the domain comes from the species named
# measurementContext: Homo sapiens
Entries and their abundance fitness values follow.
Write the value as a bare number.

W40L	-0.306
E24A	0.082
Y60V	0.134

Next up:
## Task Reported abundance fitness for Y45A : what is it?
## Result 0.106
